Give phosphorylation enrichment for every item shown.
- Test system: Fer (mouse);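 also: 11-residue human phosphosite peptides and single-mutation variants displayed on the E. coli surface, counted by deep sequencing, each peptide's frequency after selection divided by its frequency in the unselected input library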;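 also: frequency after pTyr selection over input frequency; kinase dosed for 20-30% of maximal phosphorylation in three min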
- PROTOCOL SUMMARY: phosphorylation enrichment, bacterial display (enrichment ratio); higher = better substrate or ligand; peptides without Tyr show the background
Just the number, please, no unit attached.

Query: Hi! What's the reported phosphorylation enrichment for LEAVSYSSPYA [RNLS_Y190_R193P] on Fer (mouse)?
Reply: 0.714

Query: Also LKRIAYFLCLR [LGI1_Y21_L26R] , if possible.
Reply: 0.435

Query: Now this one: DKATEYIQYVR [MAX_Y70_M74V]
Reply: 0.43

Query: Okay, and PQAVTYAKVKH [LILRB4_Y360] ?
Reply: 0.424

Query: How about this sequence: GRDVIYKGFED [NFU1_Y194_G190R]
Reply: 0.426

Query: Try PYSSPYENSLI [EPOR_Y489_N487S] next.
Reply: 2.52

Query: Entry to check: INNIDYYKNTT [FGFR2_Y656_K659N]
Reply: 0.359

Query: # iterate: SLLKDYSPQLQ [OTC_Y345_T343K]
Reply: 0.489

Query: Subsequent entry: NTYENYWPFYQ [GATM_Y103_K102N]
Reply: 8.56

Query: What do we get for DLDLTSIYPNI [PTEN_Y27_Y27S] ?
Reply: 0.425

Query: What do you have for PGNIVYSSLCG [BCOR_Y90] ?
Reply: 1.18

Query: YDCGMYSHLQG [LGR4_Y848] ?
Reply: 2.87

Query: Next record, please: LDPDSYNKFEN [FOXC1_Y159_M161K]
Reply: 0.483

Query: Lookup PIDLYYLMDLS [ITGB2_Y131]
Reply: 9.5

Query: Then what about the sequence RLASVYTKRCS [CPT2_Y508_P504L] ?
Reply: 0.414

Query: Another sequence: DDSSAYCSVDE [BCKDHA_Y345_R346C]
Reply: 0.521

Query: Next sequence up: RGYRQYAYDGK [HLA-A_Y140_D140Y]
Reply: 0.317

Query: Try MKNDLYQTPLH [NFKB1_Y582_R578K] next.
Reply: 2.2

Query: Same again, this time with KGFCGYSFDDI [TMEM230_Y110_R108C_YF]
Reply: 0.504

Query: Please do the same for EIELAYRRRPP [GRIN2B_Y1109] as well.
Reply: 0.458

Query: And then RCYVYYYSYLL [PTEN_Y177_R173C] , what is it?
Reply: 0.86

Query: Now the same for YQGGTYSKAST [FGG_Y380]
Reply: 0.387

Query: And for RAILLYEFVGK [NATD1_Y45_V42I_YF] ?
Reply: 32.5

Query: Do the same for ANVIHYFPTQA [SLC25A4_Y81_R80H] please
Reply: 0.393

Query: Then this sequence: HGEAFYSEVKA [PAK5_Y182_P187A_YF]
Reply: 11

Query: Also check CSRRLYQLTKL [AR_Y858_F857L]
Reply: 0.499

Query: Thanks! And GGDGSYVSVPS [TNNI3K_Y425] ?
Reply: 0.415

Query: Next sequence up: TSNQEYLDVSM [FGFR1_Y766_L769V]
Reply: 0.561

Query: // next record LNGDRYFKGIV [DCX_Y64_R59L]
Reply: 3.94

Query: Please answer likewise for FDAHNYHPLPV [OAT_Y55_G51D_YF]
Reply: 1.13

Query: Could you do the same for ASRKYYAMKIL [AKT3_Y174_G171R] , please?
Reply: 0.441

Query: Record: SISLKYEGRVF [ABL1_Y167_R166K_YF]
Reply: 0.565

Query: What do you have for WKKEIYEESST [MOCS2_Y170] ?
Reply: 0.471

Query: Can you check DAASNYARGHF [TUBA3E_Y103_YF] next?
Reply: 0.403
